Origin of the recorded values: paper PMC9321663

System: SOX2 (ectoderm and pluripotency marker) in RUES2-GLR cells
experiment: DevTox GLR-Endo assay: increase in percent SOX2-positive cells (AEID 3095, Sox2_up)
settings: tcpl plot AEID3095, maximum median response
Starred links: 1 amine or outer side, 2 acyl side, 3 side chain; linkers in the order of their positions; H or OH if unused. Positions of bridges follow the written chain, without caps; N, C: chain ends. Non-standard residues stand in square brackets, D forms with d. Residues, ends and D or L forms follow the SMILES beside them. Chains are numbered I, II in the order given. Actinocin(9to1) = Cc1c2oc3c(C)ccc(C(=O)[*:1])c3nc-2c(C(=O)[*:2])c(N)c1=O; NMeV = CN[C@H](C(=O)O)C(C)C; Sar = CNCC(=O)O
Reported MAX_MED values for the following compounds.
readout-label: MAX_MED (Percent Activity)

* c1cc(-c2cnn3cc(-c4ccc(OCCN5CCCCC5)cc4)cnc23)ccn1 | 17
* Cc1cn([C@H]2C=C[C@@H](CO)O2)c(=O)[nH]c1=O | 0.512
* CC(C)(c1ccc(O)cc1)c1ccc(O)cc1 | 3.32
* O=C1NC(=O)C(c2ccccc2)(c2ccccc2)N1 | 0.532
* CC[C@H](C)C(=O)O[C@H]1C[C@@H](C)C=C2C=C[C@H](C)[C@H](CC[C@@H]3C[C@@H](O)CC(=O)O3)[C@H]21 | 14.8
* CS(=O)(=O)OCCCCOS(C)(=O)=O | 2.59
* O=C(c1ccc(F)cc1)C1CCN(CCn2c(=O)[nH]c3ccccc3c2=O)CC1 | 1.15
* CC1=C(/C=C/C(C)=C/C=C/C(C)=C\C(=O)O)C(C)(C)CCC1 | 48.5
* O=C(O)c1ccccc1O | 0.494
* CC(=O)Oc1ccccc1C(=O)O | 0.512
* Cc1c2oc3c(C)ccc(C(=O)N[C@@H]4C(=O)N[C@H](C(C)C)C(=O)N5CCC[C@H]5C(=O)N(C)CC(=O)N(C)[C@@H](C(C)C)C(=O)O[C@@H]4C)c3nc-2c(C(=O)N[C@@H]2C(=O)N[C@H](C(C)C)C(=O)N3CCC[C@H]3C(=O)N(C)CC(=O)N(C)[C@@H](C(C)C)C(=O)O[C@@H]2C)c(N)c1=O [Actinomycin D] (I: T[dV]P[Sar][NMeV] / II: T[dV]P[Sar][NMeV]; ester I:1-I:C, II:1-II:C; linker I:N-II:N via Actinocin(9to1)) | 20.2
* O=P1(N(CCCl)CCCl)NCCCO1 (centres unmarked) [Cyclophosphamide] | 0.491
* Nc1ccn([C@@H]2O[C@H](CO)[C@@H](O)[C@@H]2O)c(=O)n1 | 2.91
* COc1cccc2c1C(=O)c1c(O)c3c(c(O)c1C2=O)C[C@@](O)(C(=O)CO)C[C@@H]3O[C@H]1C[C@H](N)[C@H](O)[C@H](C)O1 | 8.86
* Cc1nc(Nc2ncc(C(=O)Nc3c(C)cccc3Cl)s2)cc(N2CCN(CCO)CC2)n1 | 64.4
* CC1(C)S[C@@H]2[C@H](NC(=O)Cc3ccccc3)C(=O)N2[C@H]1C(=O)O | 0.88
* O=C1Cc2cc(CCN3CCN(c4nsc5ccccc45)CC3)c(Cl)cc2N1 | 4.3
* O=C(O)c1cc(/N=N/c2ccc(S(=O)(=O)Nc3ccccn3)cc2)ccc1O | 0.57
* C[C@@H]1C[C@H]2[C@@H]3CCC4=CC(=O)C=C[C@]4(C)[C@@]3(F)[C@@H](O)C[C@]2(C)[C@@]1(O)C(=O)CO | 0.482
* CNC(=O)c1cc(Oc2ccc(NC(=O)Nc3ccc(Cl)c(C(F)(F)F)c3)cc2)ccn1 | 11.9
* O=c1[nH]c(=O)n([C@H]2C[C@H](O)[C@@H](CO)O2)cc1Br | 2.23
* CC(C)Cc1ccc(C(C)C(=O)O)cc1 (centres unmarked) | 0.561
* O=C1CCC(N2C(=O)c3ccccc3C2=O)C(=O)N1 (centres unmarked) [Thalidomide] | 0.473
* NC(=O)c1ccc(N)nc1 [6-Aminonicotinamide, 6−aminopyridine−3−carboxamide] | 4.39
* Cc1ccc(NC(=O)c2ccc(CN3CCN(C)CC3)cc2)cc1Nc1nccc(-c2cccnc2)n1 | 6.89
* OB(O)O | 0.453
* CC1=C(/C=C/C(C)=C/C=C/C(C)=C/C(=O)O)C(C)(C)CCC1 | 53.1
* C=CC(N)=O [Acrylamide] | 0.417
* Cc1nc2sccn2c(=O)c1CCN1CCC(=C(c2ccc(F)cc2)c2ccc(F)cc2)CC1 | 1.82
* NNC(=O)c1ccncc1 | 0.538
* CO[C@H]1/C=C/O[C@@]2(C)Oc3c(C)c(O)c4c(O)c(c(/C=N/N5CCN(C)CC5)c(O)c4c3C2=O)NC(=O)/C(C)=C\C=C\[C@H](C)[C@H](O)[C@@H](C)[C@@H](O)[C@@H](C)[C@H](OC(C)=O)[C@@H]1C | 0.542
* Nc1cccc2c1CN(C1CCC(=O)NC1=O)C2=O (centres unmarked) [Lenalidomide] | 0.697

---

Listing: log10 AC50 of selected compounds
System: SOX17 (endoderm marker) in RUES2-GLR cells
experiment: DevTox GLR-Endo assay: decrease in percent SOX17-positive cells (AEID 3094, Sox17_dn)
settings: Homo sapiens, read-out: ga (winning model), tcpl plot AEID3094, gain parameter of winning curve fit (log concentration, µM axis), hit calls only (converted)
readout-label: log10 AC50 (log10 of the value in µM)

- C[C@](N)(Cc1ccc(O)c(O)c1)C(=O)O: 2.05
- CNC(=O)c1cc(Oc2ccc(NC(=O)Nc3ccc(Cl)c(C(F)(F)F)c3)cc2)ccn1: -0.21
- COc1ccc2c(c1)c(CC(=O)O)c(C)n2C(=O)c1ccc(Cl)cc1: 1.12
- CC(=O)CC(c1ccccc1)c1c(O)c2ccccc2oc1=O (stereo not drawn): 1.91
- CCCC(CCC)C(=O)O: 2.09
- Cc1nc2sccn2c(=O)c1CCN1CCC(=C(c2ccc(F)cc2)c2ccc(F)cc2)CC1: 1.00
- CC1=C(/C=C/C(C)=C/C=C/C(C)=C/CO)C(C)(C)CCC1: 1.53
- Nc1cccc2c1CN(C1CCC(=O)NC1=O)C2=O (stereo not drawn) [Lenalidomide]: -0.47
- CC/C(=C(/CC)c1ccc(O)cc1)c1ccc(O)cc1: -0.19
- COc1cc2ncnc(Nc3ccc(F)c(Cl)c3)c2cc1OCCCN1CCOCC1: 0.76
- COc1cc2c(Nc3ccc(Br)cc3F)ncnc2cc1OCC1CCN(C)CC1: 0.69
- Cc1nc(Nc2ncc(C(=O)Nc3c(C)cccc3Cl)s2)cc(N2CCN(CCO)CC2)n1: -0.14

---

Tested on: RUES2-GLR cells
experiment: in vitro
settings: human, 48 h
Decide using DevTox-GLR Endo CC: a value greater than or equal to 10 µM is rule met, a smaller one is rule not met.

• Nc1ccn([C@@H]2O[C@H](CO)[C@@H](O)[C@@H]2O)c(=O)n1 = rule not met
• CC1=C(/C=C/C(C)=C/C=C/C(C)=C/C(=O)O)C(C)(C)CCC1 = rule not met
• O=c1[nH]cc(F)c(=O)[nH]1 = rule met
• CS(=O)(=O)OCCCCOS(C)(=O)=O = rule not met
• NC(=O)N1c2ccccc2C=Cc2ccccc21 [Carbamazepine] = rule met
• CC1=C(/C=C/C(C)=C/C=C/C(C)=C/CO)C(C)(C)CCC1 = rule met

---

System: SOX2 (ectoderm and pluripotency marker) in RUES2-GLR cells
experiment: DevTox GLR-Endo assay: increase in percent SOX2-positive cells (AEID 3095, Sox2_up);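 further: cells exposed to test chemicals for 48 h in total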
settings: tcpl plot AEID3095, maximum median response
Returns: string. Value is yes (1) if measured MAX_MED is below 5 Percent Activity, and no (0) if it is greater than or equal to it.

- CCCCc1oc2ccccc2c1C(=O)c1cc(I)c(OCCN(CC)CC)c(I)c1: yes (1)
- COC(=O)c1ccccc1C(=O)OC [Dimethyl Phthalate]: yes (1)
- Oc1cc(O)c2c(c1)O[C@H](c1ccc(O)c(O)c1)[C@@H](O)C2: yes (1)
- CC1=C(/C=C/C(C)=C/C=C/C(C)=C/CO)C(C)(C)CCC1: no (0)
- O=C(O)c1cccnc1: yes (1)
- O=C1NS(=O)(=O)c2ccccc21: yes (1)
- O=c1[nH]cc(F)c(=O)[nH]1: no (0)
- CC1=C2C[C@H]3[C@@H](CC=C4C[C@@H](O)CC[C@@]43C)[C@@H]2CC[C@]12O[C@@H]1C[C@H](C)CN[C@H]1[C@H]2C: yes (1)
- COc1ccc2nc([S@@+]([O-])Cc3ncc(C)c(OC)c3C)[nH]c2c1: no (0)
- CC/C(=C(/CC)c1ccc(O)cc1)c1ccc(O)cc1: yes (1)
- CC(O)CO (centres unmarked): yes (1)
